Values compiled from ChEMBL document CHEMBL3112438.

So I've got a bunch of molecules here, and I need their AUC values.
- System: Rattus norvegicus
- measurement notes: AUC in Sprague-Dawley rat at 10 mg/kg, po
- Format: ADME, organism-based, Plasma
- Design: dose 10 mg/kg, route oral
- condition set: in vivo
Record the value in ng·h/mL, omitting the unit from your answer.

Request: Would you mind telling me what AUC value was observed for O=C(O)Cc1ccc(OC2CCN(C(=O)N[C@H]3C[C@@H]3c3ccccc3)CC2)c(Cl)c1 (racemic) ?
Response: 30400

Request: Would you mind telling me what AUC value was observed for O=C(O)c1ccc(OC2CCN(C(=O)N[C@H]3C[C@@H]3c3ccccc3)CC2)c(Cl)c1 (racemic) ?
Response: 15900
